target: hA1 (Homo sapiens, UniProt P30542); assay: selectivity to the A1 receptor; type: binding; conditions: selectivity of A2a affinity versus hA1
Sequence (P30542 whole entry): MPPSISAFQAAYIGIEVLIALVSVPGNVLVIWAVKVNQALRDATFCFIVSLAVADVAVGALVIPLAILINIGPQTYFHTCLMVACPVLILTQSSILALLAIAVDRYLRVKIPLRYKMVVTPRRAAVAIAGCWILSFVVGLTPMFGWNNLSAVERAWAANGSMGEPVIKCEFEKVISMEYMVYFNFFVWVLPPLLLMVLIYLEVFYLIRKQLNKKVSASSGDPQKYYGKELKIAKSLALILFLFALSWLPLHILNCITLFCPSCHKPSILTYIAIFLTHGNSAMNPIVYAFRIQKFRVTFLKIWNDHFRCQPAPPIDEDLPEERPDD
measurement name: selectivity to hA1
// return a plain number; no unit text

Sample records with selectivity to hA1:
- smiles data: "COc1ccc(-c2ccc(F)cc2)c2oc(NC(=O)c3ccnc(C)c3)nc12"
  selectivity to hA1: 134
- smiles data: "COc1ccc(C2CCOCC2)c2oc(NC(=O)c3ccnc(N4CCOCC4)c3)nc12"
  selectivity to hA1: 351
- smiles data: "COc1ccc(-c2ccc(F)cc2)c2oc(NC(=O)c3ccnc(CCl)c3)nc12"
  selectivity to hA1: 227
- smiles data: "COc1ccc(-c2ccc(F)cc2)c2oc(NC(=O)c3ccc(F)cc3)nc12"
  selectivity to hA1: 120

// moving on: another record for selectivity to hA1
Request: Record request: selectivity to hA1 value, item COCCN(C)Cc1ccc(C(=O)Nc2nc3c(OC)ccc(-c4ccccc4)c3o2)cc1
Response: 137

###

target: hA1 (Homo sapiens, UniProt P30542); test: selectivity to the A1 receptor; type: binding; conditions: selectivity of A2a affinity versus hA1
selectivity to hA1 by entry:
When you answer, write just the number.

Some solved cases for reference:
- smiles data: "COc1ccc(-c2ccc(F)cc2)c2oc(NC(=O)c3ccnc(N4CCOCC4)c3)nc12"
  assayed system: "hA1 (Homo sapiens, UniProt P30542)"
  selectivity to hA1: 650
- smiles data: "COCc1cc(C(=O)Nc2nc3c(OC)ccc(-c4ccc(F)cc4)c3o2)ccn1"
  assayed system: "hA1 (Homo sapiens, UniProt P30542)"
  selectivity to hA1: 96
- smiles data: "COc1ccc(-c2ccc(F)cc2)c2oc(NC(=O)c3ccc(C)nc3)nc12"
  assayed system: "hA1 (Homo sapiens, UniProt P30542)"
  selectivity to hA1: 242
- smiles data: "COc1ccc(C2CCOCC2)c2oc(NC(=O)c3ccc(F)cc3)nc12"
  assayed system: "hA1 (Homo sapiens, UniProt P30542)"
  selectivity to hA1: 140

Now look at this one.
Request: Tell me the measured selectivity to hA1 of COc1ccc(-c2ccccc2)c2oc(NC(=O)c3ccc(F)cc3)nc12 , please.
Response: 26

Where do these numbers come from? They come from patent US6992083B2.
